# key: entry, value: CVS-11 neutralizing antibody titer (RFFIT), IU/ml
biological target: Rabies virus glycoprotein G, Challenge Virus Standard (CVS)-11 strain (Rabies virus, strain CVS-11 (genotype 1 Lyssavirus)) (UniProt O92284); experiment: cell-based or functional assay
Sequence (O92284 20-524 limits assumed): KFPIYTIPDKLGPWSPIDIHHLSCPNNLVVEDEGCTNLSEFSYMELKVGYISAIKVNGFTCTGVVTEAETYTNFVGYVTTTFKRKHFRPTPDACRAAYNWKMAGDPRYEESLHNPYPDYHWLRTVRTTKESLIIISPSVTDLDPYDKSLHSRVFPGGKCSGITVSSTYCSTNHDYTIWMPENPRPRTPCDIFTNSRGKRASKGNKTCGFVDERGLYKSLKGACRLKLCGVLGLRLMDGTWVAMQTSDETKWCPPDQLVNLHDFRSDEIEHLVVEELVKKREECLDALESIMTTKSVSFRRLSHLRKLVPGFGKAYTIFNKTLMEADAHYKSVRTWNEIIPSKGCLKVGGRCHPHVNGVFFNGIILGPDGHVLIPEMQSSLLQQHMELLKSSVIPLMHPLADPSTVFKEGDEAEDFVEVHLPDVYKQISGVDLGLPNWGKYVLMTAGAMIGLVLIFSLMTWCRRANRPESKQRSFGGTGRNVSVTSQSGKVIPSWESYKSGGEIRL
# output: bare number, implied unit IU/ml

Past entries and their recorded results:
| binder | test value |
| --- | --- |
| LG212G2 (VHH) VHH: EVQLVESGGGLVQPGGSLRLSCAASGFTFGSHDMSWVRQAPGKGSEWVSGIKSGGGSTLYADSVKGRFAISRDNAKNTLYLQMNSLKPEDTAVYYCATDLYGSTWYPGEDRGTQVTVSS | 9.12 |
| LG212B2 (VHH) VHH: EMQLVESGGGLVQAGDSLRLSCAASGDTFSWYVMAWFRQAPGKEREFVTWINRSGASTYYADSVKGRFTIFRDNDKNTVYLQMNSLKPEDTAVYYCAAGGFYGLRTTEERYDTWGQGTQVTVSS | 2.6 |
| LG212F6 (VHH) VHH: EVQLVESGGGLVQPGGSLRLSCAASGFTFGSYDMSWVRQAPGKGSEWVSHINTGGGSTTYADSVKGRFTISRDNAKNTLYLQMSSLKPEDTAVYYCATGLYGGSTDDYWGQGTQVTVSS | 122 |
| LG214A8 (VHH) VHH: EVQLVKSGGGSVQAGGSLRLSCAASGGTFNPYVMAWFRQAPGNEREFVARIRWSGGDAYYDDSVKGRFAITRDAAKNTVHLQMNSLKPEDTAVYYCAAATYGYGSYTYGGSYDLWGQGTQVTVSS | 9.12 |
| LG214E8 (VHH) VHH: EVQLVESGGGSVQAGGSLRLSCAASGGTFNPYVMAWFRQAPGNEREFVARIRWSGGDAYYDDSVKGRFAITRDAAKNTVHLQMNSLKPEDTAVYYCAAATYGYGSYTYGGSYDLWGQGTQVTVSS | 4.87 |
| LG213B7 (VHH) VHH: EVQLVESGGGLVQAGGSLRLSCTVSGDTFDNSAAGWYRATSETQRELVARIRSSGSTNYADSVKGRFTVSRDNAKNTVYLQMNSLKPEDTAVYYCNVVSYGEYFWGKGTLVTVSS | 4.87 |
| LG213E6 (VHH) VHH: EVQLVESGGGLVQAGASLRLSCAASGSTLSRYGVGWFRQAPGKERELVASVDWSGSRTYYADSVKGRFTISRDNAKNTGYLQMNSLKPDDTAVYYCAADSSVVPGIEKYDDWGLGTQVTVSS | 112 |
| LG214F8 (VHH) VHH: EVQLVESGGDLVQAGGSLRLSCVASGSTYSINAMGWYRQAPGKLRELVAAFRTGGSTDYADSVKGRFTISRDTAKNTVYLQMNSLKPEDTAVYYCNAEVIYYPYDYWGQGTQVTVSS | 1.15 |

Fill in CVS-11 neutralizing antibody titer (RFFIT), IU/ml for record LG213D7 (VHH) VHH: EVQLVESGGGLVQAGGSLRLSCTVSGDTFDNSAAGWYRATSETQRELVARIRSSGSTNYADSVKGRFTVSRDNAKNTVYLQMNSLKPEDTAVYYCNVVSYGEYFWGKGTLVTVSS
5.1

Fill in CVS-11 neutralizing antibody titer (RFFIT), IU/ml for record LG213H7 (VHH) VHH: EVQLVESGGGLVQAGGSLRLSCAASGRTLSSYRMGWFRQAPGKEREFISTISWNGRSTYYADSVKGRFIFSEDNAKNTVYLQMNSLKPEDTAVYYCAAALIGGYYSDVDAWSYWGPGTQVTVSS
1.71

Fill in CVS-11 neutralizing antibody titer (RFFIT), IU/ml for record LG212C12 (VHH) VHH: EVQLVESGGGLVQPGGSLRLSCAASGFTFGSSDMSWVRQAPGKGPEWVSGINSGGGRTLYADSVKGRFTISRDNAKNTLYLQMNSLKSEDTAVYYCATDLYGSSWYTDYWSQGTQVTVSS
394

Source of measurements: patent US20200123233A1
